- test: PK data for BTK CTMs (in vivo plasma concentrations)
- experimental conditions: Monkey cynomolgus, 0.75 mg/kg IV
- Text: The present example evaluates in vivo plasma concentrations of BTK CTMs to develop PK-PD-efficacy relationship and predict human exposure.
measured property: clearance (mL/min/kg)
Please respond with the number in mL/min/kg and leave the unit unwritten.

What does the record list as clearance for CN1CCN([C@H]2CCCN(c3cnc(C(N)=O)c(Nc4ccc(C5CCN(CC6CCN(c7ccc(C(=O)NC8CCC(=O)NC8=O)nc7)CC6)CC5)cc4)n3)C2)C1=O (stereo partly shown) ?
90.9

---

- tested on: BTK (Mus musculus, UniProt P35991)
- Construct: from tissue; host or cells: mouse blood B cells / splenocytes (CD-1 or BALB/c)
- Sequence (P35991 whole entry): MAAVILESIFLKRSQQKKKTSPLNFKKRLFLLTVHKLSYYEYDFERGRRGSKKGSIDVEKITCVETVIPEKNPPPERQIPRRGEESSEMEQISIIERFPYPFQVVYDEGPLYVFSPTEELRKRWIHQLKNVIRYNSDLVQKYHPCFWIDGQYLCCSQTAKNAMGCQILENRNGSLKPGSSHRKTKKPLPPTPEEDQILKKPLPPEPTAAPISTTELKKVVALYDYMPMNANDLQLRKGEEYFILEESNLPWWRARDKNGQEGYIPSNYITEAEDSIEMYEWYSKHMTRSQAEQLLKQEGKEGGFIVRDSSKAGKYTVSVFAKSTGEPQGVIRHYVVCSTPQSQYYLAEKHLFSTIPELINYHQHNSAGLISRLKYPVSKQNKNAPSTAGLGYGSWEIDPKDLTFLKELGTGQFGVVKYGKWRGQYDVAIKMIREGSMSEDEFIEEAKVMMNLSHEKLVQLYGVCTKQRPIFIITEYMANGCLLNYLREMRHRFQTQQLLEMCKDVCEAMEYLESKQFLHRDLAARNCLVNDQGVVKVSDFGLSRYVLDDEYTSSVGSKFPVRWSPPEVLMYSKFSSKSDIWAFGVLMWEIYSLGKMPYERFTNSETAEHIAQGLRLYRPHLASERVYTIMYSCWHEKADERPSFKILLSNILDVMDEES
- test: In vivo degradation of BTK in mouse PD experiments with oral dosing
- experimental conditions: oral dose 30 mg/kg, 24 h, blood, flow cytometry
measured property: % BTK Remaining (%)
Please respond with the number in % and leave the unit unwritten.

Consider the reported % BTK Remaining for these compounds:
>  <compound>
Cn1cc(Nc2nc(N3CCC[C@@H](N4CCC5(CN(CC6CCN(c7ccc8c(=O)n(C9CCC(=O)NC9=O)ccc8c7)CC6)C5)C4=O)C3)cnc2C(N)=O)cn1 (some centres unmarked)

>  <% BTK Remaining / %>
100

$$$$
>  <compound>
CN1CCN([C@H]2CCCN(c3cnc(C(N)=O)c(Nc4ccc(C5CCN(C[C@@H]6CCN(c7ccc(-c8nn(C9CCC(=O)NC9=O)c(=O)n8C)cc7)C6)CC5)cc4)n3)C2)C1=O (some centres unmarked)

>  <% BTK Remaining / %>
43

$$$$
>  <compound>
NC(=O)c1ncc(N2CCC[C@H](N3CCCC3=O)C2)nc1Nc1ccc(C2CCN(CC3CCN(c4ccc5c(=O)n(C6CCC(=O)NC6=O)ccc5c4)CC3)CC2)cc1 (some centres unmarked)

>  <% BTK Remaining / %>
29

$$$$
>  <compound>
CN1CCN([C@@H]2CCCN(c3cnc(C(N)=O)c(Nc4ccc(C5CN(CC6CCN(c7ccc8c(=O)n(C9CCC(=O)NC9=O)ccc8c7)CC6)C5)cc4)n3)C2)C1=O (some centres unmarked)

>  <% BTK Remaining / %>
30

$$$$

What does the record list as % BTK Remaining for CN1CCN([C@H]2CCCN(c3cnc(C(N)=O)c(Nc4ccc(N5CCC6(CCN(c7ccc8c(c7)C(=O)N(C7CCC(=O)NC7=O)C8=O)CC6)CC5)nc4)n3)C2)C1=O (some centres unmarked) ?
52
